All values here come from patent US9085606B2.

biological target: Recombinant human integrin αvβ6 (Homo sapiens, UniProt P06756+P18564); test: Solid Phase Receptor Assay for αvβ6 Function; conditions: binding to LAP-coated plate; read-out: αvβ6 SPRA IC50
Sequence (P18564 22-707 limits assumed, one chain of several): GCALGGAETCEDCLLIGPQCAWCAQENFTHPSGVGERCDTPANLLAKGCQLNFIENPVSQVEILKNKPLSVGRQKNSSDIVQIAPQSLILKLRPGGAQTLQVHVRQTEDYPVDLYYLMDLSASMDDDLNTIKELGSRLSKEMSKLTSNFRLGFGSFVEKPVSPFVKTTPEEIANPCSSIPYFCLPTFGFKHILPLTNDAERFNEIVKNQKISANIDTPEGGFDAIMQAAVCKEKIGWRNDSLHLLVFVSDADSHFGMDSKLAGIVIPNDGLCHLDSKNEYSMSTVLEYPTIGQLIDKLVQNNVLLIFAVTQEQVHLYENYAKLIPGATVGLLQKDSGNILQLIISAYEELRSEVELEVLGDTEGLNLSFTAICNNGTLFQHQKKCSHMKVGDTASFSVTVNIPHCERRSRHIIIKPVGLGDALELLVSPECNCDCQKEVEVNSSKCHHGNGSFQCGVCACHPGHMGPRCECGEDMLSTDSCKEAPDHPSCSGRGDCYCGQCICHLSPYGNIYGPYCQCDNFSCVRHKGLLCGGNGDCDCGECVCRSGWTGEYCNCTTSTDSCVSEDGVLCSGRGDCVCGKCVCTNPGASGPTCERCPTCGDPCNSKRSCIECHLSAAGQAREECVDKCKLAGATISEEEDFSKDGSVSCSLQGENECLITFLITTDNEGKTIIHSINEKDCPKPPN
property_name: IC50

| compound | result |
| --- | --- |
| CC(C)(c1cc(Cl)cc([C@H](CC(=O)O)NC(=O)CNC(=O)c2cc(O)cc(NC3=NCC(O)CN3)c2)c1)C(F)(F)F (stereo partly shown) | 0.4 nM |
| CC(C)(CO)c1cc(Cl)cc([C@H](CC(=O)O)NC(=O)CNC(=O)c2cc(O)cc(NC3=NCC(O)CN3)c2)c1 (stereo partly shown) | 0.4 nM |
| CC(C)(C)c1cc([C@H](CC(=O)O)NC(=O)CNC(=O)c2cncc(NC(=N)N)c2)cc(C(C)(C)C)c1 | 1.2 nM |
| CC(C)(C)c1cc(Br)c(O)c([C@H](CC(=O)O)NC(=O)CNC(=O)c2cc(O)cc(NC3=NCC(O)CN3)c2)c1 (stereo partly shown) | 0.4 nM |
| CC(C)(O)c1cc(Cl)cc([C@H](CC(=O)O)NC(=O)CNC(=O)c2cc(O)cc(NC3=NCC(O)CN3)c2)c1 (stereo partly shown) | 0.5 nM |
| CC(O)(c1cc(Cl)cc([C@H](CC(=O)O)NC(=O)CNC(=O)c2cc(O)cc(NC3=NCC(O)CN3)c2)c1)C(F)(F)F (stereo partly shown) | 0.4 nM |
| CC(C)(C)c1cc(Br)cc([C@H](CC(=O)O)NC(=O)CNC(=O)c2cncc(NC(=N)N)c2)c1 | 0.5 nM |

* * *

molecular target: Recombinant human integrin αvβ3 (Homo sapiens, UniProt P05106+P06756); assay: Solid Phase Receptor Assay for αvβ3 Function; details: binding to vitronectin-coated plate; read-out: αvβ3 SPRA IC50
Sequence (P05106 27-718 limits assumed, one chain of several): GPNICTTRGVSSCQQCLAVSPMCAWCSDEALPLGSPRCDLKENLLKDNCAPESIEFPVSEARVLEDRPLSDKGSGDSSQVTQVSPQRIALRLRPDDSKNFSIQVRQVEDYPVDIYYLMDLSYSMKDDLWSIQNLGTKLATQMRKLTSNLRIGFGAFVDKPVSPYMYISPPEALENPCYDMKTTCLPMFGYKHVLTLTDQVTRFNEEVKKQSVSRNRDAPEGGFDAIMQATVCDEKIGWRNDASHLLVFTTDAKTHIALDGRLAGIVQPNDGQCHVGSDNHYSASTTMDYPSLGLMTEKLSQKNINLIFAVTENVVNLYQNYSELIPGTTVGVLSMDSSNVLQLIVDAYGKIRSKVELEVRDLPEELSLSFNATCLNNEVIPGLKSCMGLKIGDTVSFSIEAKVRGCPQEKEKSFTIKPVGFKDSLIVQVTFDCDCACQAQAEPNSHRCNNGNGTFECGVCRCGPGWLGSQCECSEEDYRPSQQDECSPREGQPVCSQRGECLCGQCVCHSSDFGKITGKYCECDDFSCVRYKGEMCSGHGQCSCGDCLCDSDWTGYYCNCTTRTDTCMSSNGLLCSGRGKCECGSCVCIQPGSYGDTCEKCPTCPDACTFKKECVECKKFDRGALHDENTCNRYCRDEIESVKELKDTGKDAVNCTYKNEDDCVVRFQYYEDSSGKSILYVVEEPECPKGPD
pIC50: −log10 of the molar value.
Quick reference for pIC50 among some compounds

| compound | pIC50 |
| --- | --- |
| CC(C)(O)c1cc([C@H](CC(=O)O)NC(=O)CNC(=O)c2cc(O)cc(NC3=NCC(O)CN3)c2)cc(C(F)(F)F)c1 (stereo partly shown) | 8.74 |
| CC(C)(CO)c1cc(Cl)cc([C@H](CC(=O)O)NC(=O)CNC(=O)c2cc(O)cc(NC3=NCC(O)CN3)c2)c1 (stereo partly shown) | 8.48 |
| COCC1(c2cc(Cl)cc([C@H](CC(=O)O)NC(=O)CNC(=O)c3cc(O)cc(NC4=NCC(O)CN4)c3)c2)CCOCC1 (stereo partly shown) | 8.77 |
| CC(C)(C)c1cc([C@H](CC(=O)O)NC(=O)CNC(=O)c2cncc(NC(=N)N)c2)cc(C(C)(C)C)c1 | 6.76 |
| CC(C)(C)c1cc(Br)cc([C@H](CC(=O)O)NC(=O)CNC(=O)c2cc(O)cc(NC3=NCCN3)c2)c1 | 8.54 |
| CC(C)(C)c1cc(-c2cncnc2)cc([C@H](CC(=O)O)NC(=O)CNC(=O)c2cc(O)cc(NC3=NCC(O)CN3)c2)c1 (stereo partly shown) | 8.06 |
| CC(C)(C#N)c1cc(Br)cc([C@H](CC(=O)O)NC(=O)CNC(=O)c2cc(O)cc(NC3=NCC(O)CN3)c2)c1 (stereo partly shown) | 8.47 |

* * *

molecular target: Recombinant human integrin αvβ3 (Homo sapiens, UniProt P05106+P06756); assay: Solid Phase Receptor Assay for αvβ3 Function; conditions: binding to vitronectin-coated plate; read-out: αvβ3 SPRA IC50
Quick reference for IC50 among some compounds

| compound | unit_abbrev | IC50 |
| --- | --- | --- |
| CC(C)(C)c1cc(Br)c(O)c([C@H](CC(=O)O)NC(=O)CNC(=O)c2cc(O)cc(NC3=NCC(O)CN3)c2)c1 (stereo partly shown) | nM | 5.1 |
| CC(C)(C)c1cc(C#N)cc([C@H](CC(=O)O)NC(=O)CNC(=O)c2cc(O)cc(NC3=NCC(O)CN3)c2)c1 (stereo partly shown) | nM | 2.8 |
| CC(C)(O)c1cc(Cl)cc([C@H](CC(=O)O)NC(=O)CNC(=O)c2cc(O)cc(NC3=NCC(O)CN3)c2)c1 (stereo partly shown) | nM | 2.3 |
| CC(C)(C)c1cc(Br)cc([C@H](CC(=O)O)NC(=O)CNC(=O)c2cccc(NC3=NCCN3)c2)c1 | nM | 1.3 |
| CC(C)(C)c1cc(Br)cc([C@H](CC(=O)O)NC(=O)CNC(=O)c2cc(O)cc(NC3=NCC(O)CN3)c2)c1O (stereo partly shown) | nM | 1.8 |
| CC(C)(O)c1cc(Br)cc([C@H](CC(=O)O)NC(=O)CNC(=O)c2cc(O)cc(NC3=NCC(O)CN3)c2)c1 (stereo partly shown) | nM | 2 |
| CC(C)(C)c1cc(Br)cc([C@H](CC(=O)O)NC(=O)CNC(=O)c2cncc(NC(=N)N)c2)c1 | nM | 3.5 |
| CC(C)(C)c1cc(Br)cc([C@H](CC(=O)O)NC(=O)CNC(=O)c2cccc(NC(=N)N)c2)c1 | nM | 2.6 |
| CC(C)(C)c1cc(-c2cccnc2)cc([C@H](CC(=O)O)NC(=O)CNC(=O)c2cc(O)cc(NC3=NCC(O)CN3)c2)c1 (stereo partly shown) | nM | 14.5 |
| COCC(C)(C)c1cc(Cl)cc([C@H](CC(=O)O)NC(=O)CNC(=O)c2cc(O)cc(NC3=NCC(O)CN3)c2)c1 (stereo partly shown) | nM | 1.7 |
| O=C(O)C[C@H](NC(=O)CNC(=O)c1cc(O)cc(NC2=NCC(O)CN2)c1)c1cc(Cl)cc(C2(CO)CCOCC2)c1 (stereo partly shown) | nM | 4 |
| O=C(O)C[C@H](NC(=O)CNC(=O)c1cc(O)cc(NC2=NCC(O)CN2)c1)c1cc(Cl)cc(C2(CF)CCOCC2)c1 (stereo partly shown) | nM | 3.7 |
| CC(C)(C)c1cc(Br)cc([C@H](CC(=O)O)NC(=O)CNC(=O)c2cncc(NC3=NCC(O)CN3)c2)c1 (stereo partly shown) | nM | 1.5 |

* * *

biological target: Recombinant human integrin αvβ1 (Homo sapiens, UniProt P05556+P06756); experiment: Solid Phase Receptor Assay for αvβ1 Function; conditions: binding to fibronectin-coated plate; read-out: αvβ1 SPRA IC50
Sequence (P06756 31-992 limits assumed): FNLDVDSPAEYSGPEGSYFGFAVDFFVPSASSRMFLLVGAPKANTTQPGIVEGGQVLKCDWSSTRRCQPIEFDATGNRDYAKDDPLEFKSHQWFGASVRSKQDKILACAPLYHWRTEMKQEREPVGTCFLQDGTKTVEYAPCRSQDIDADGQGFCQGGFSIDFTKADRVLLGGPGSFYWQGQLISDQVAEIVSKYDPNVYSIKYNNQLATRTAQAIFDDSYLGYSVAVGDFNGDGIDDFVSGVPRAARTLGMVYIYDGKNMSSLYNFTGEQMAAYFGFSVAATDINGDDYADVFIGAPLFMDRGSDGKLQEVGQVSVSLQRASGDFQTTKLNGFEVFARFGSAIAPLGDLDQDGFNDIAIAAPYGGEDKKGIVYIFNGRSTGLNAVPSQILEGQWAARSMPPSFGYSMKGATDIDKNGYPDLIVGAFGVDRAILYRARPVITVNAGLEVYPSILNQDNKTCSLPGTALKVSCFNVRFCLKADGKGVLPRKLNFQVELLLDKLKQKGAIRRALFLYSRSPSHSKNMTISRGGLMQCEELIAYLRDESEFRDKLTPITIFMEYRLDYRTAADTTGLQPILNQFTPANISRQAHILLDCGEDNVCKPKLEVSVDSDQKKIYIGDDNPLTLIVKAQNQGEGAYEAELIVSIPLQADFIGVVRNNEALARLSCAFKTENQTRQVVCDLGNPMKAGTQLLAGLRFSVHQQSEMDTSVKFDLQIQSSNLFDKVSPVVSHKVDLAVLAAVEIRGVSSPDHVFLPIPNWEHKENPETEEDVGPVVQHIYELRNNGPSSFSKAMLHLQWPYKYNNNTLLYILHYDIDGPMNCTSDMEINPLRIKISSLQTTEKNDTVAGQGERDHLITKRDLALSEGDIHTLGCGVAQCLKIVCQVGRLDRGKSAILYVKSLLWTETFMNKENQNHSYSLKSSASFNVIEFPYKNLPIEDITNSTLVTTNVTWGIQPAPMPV
Sequence (P05556 21-728 limits assumed): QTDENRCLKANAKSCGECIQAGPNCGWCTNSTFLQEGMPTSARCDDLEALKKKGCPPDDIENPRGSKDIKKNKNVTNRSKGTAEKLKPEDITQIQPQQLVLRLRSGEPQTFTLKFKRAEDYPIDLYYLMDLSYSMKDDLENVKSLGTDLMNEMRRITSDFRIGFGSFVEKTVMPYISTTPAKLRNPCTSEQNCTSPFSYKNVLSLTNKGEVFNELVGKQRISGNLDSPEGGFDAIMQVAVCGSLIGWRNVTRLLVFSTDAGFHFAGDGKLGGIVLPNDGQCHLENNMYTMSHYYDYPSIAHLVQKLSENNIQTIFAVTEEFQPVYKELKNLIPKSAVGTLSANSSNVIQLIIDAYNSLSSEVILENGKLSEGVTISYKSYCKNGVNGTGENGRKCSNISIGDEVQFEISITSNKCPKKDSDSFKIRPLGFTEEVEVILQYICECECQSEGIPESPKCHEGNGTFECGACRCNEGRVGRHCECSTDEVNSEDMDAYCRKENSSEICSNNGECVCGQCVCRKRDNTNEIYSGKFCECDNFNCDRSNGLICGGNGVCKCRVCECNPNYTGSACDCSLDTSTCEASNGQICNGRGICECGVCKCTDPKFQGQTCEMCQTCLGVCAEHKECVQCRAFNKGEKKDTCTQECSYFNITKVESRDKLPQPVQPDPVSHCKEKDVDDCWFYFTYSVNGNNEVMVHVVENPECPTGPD
property_name: IC50

| compound | system | result |
| --- | --- | --- |
| CC(C)(C)c1cc(C#N)cc([C@H](CC(=O)O)NC(=O)CNC(=O)c2cc(O)cc(NC3=NCC(O)CN3)c2)c1 (some centres unmarked) | Recombinant human integrin αvβ1 (Homo sapiens, UniProt P05556+P06756) | 2 nM |
| CC(C)(C)c1cc(Br)c(O)c([C@H](CC(=O)O)NC(=O)CNC(=O)c2cc(O)cc(NC3=NCC(O)CN3)c2)c1 (some centres unmarked) | Recombinant human integrin αvβ1 (Homo sapiens, UniProt P05556+P06756) | 2.1 nM |
| CC(C)(C)c1cc(-c2cncnc2)cc([C@H](CC(=O)O)NC(=O)CNC(=O)c2cc(O)cc(NC3=NCC(O)CN3)c2)c1 (some centres unmarked) | Recombinant human integrin αvβ1 (Homo sapiens, UniProt P05556+P06756) | 4.1 nM |
| CC(C)(C)c1cc(Br)cc([C@H](CC(=O)O)NC(=O)CNC(=O)c2cc(O)cc(NC3=NCCN3)c2)c1 | Recombinant human integrin αvβ1 (Homo sapiens, UniProt P05556+P06756) | 2.4 nM |
| COCC1(c2cc(Cl)cc([C@H](CC(=O)O)NC(=O)CNC(=O)c3cc(O)cc(NC4=NCC(O)CN4)c3)c2)CCOCC1 (some centres unmarked) | Recombinant human integrin αvβ1 (Homo sapiens, UniProt P05556+P06756) | 3.3 nM |
| CC(C)(O)c1cc([C@H](CC(=O)O)NC(=O)CNC(=O)c2cc(O)cc(NC3=NCC(O)CN3)c2)cc(C(F)(F)F)c1 (some centres unmarked) | Recombinant human integrin αvβ1 (Homo sapiens, UniProt P05556+P06756) | 4 nM |
| CC(C)(C)c1cc(Br)cc([C@H](CC(=O)O)NC(=O)CNC(=O)c2cccc(NC(=N)N)c2)c1 | Recombinant human integrin αvβ1 (Homo sapiens, UniProt P05556+P06756) | 3.2 nM |
| CC(C)(C)c1cc(Br)cc([C@H](CC(=O)O)NC(=O)CNC(=O)c2cc(O)cc(NC3=NCC(O)CN3)c2)c1O (some centres unmarked) | Recombinant human integrin αvβ1 (Homo sapiens, UniProt P05556+P06756) | 2.2 nM |
| CC(C)(CO)c1cc(Cl)cc([C@H](CC(=O)O)NC(=O)CNC(=O)c2cc(O)cc(NC3=NCC(O)CN3)c2)c1 (some centres unmarked) | Recombinant human integrin αvβ1 (Homo sapiens, UniProt P05556+P06756) | 2.9 nM |
| CC(C)(C)c1cc(Br)cc([C@H](CC(=O)O)NC(=O)CNC(=O)c2cccc(NC3=NCCN3)c2)c1 | Recombinant human integrin αvβ1 (Homo sapiens, UniProt P05556+P06756) | 2.7 nM |
| CC(C)(O)c1cc(Cl)cc([C@H](CC(=O)O)NC(=O)CNC(=O)c2cc(O)cc(NC3=NCC(O)CN3)c2)c1 (some centres unmarked) | Recombinant human integrin αvβ1 (Homo sapiens, UniProt P05556+P06756) | 1.7 nM |
| CC(C)(C)c1cc(Br)cc([C@H](CC(=O)O)NC(=O)CNC(=O)c2cncc(NC(=N)N)c2)c1 | Recombinant human integrin αvβ1 (Homo sapiens, UniProt P05556+P06756) | 4.7 nM |
| CC(C)(C)c1cc([C@H](CC(=O)O)NC(=O)CNC(=O)c2cncc(NC(=N)N)c2)cc(C(C)(C)C)c1 | Recombinant human integrin αvβ1 (Homo sapiens, UniProt P05556+P06756) | 2.1 nM |
| O=C(O)C[C@H](NC(=O)CNC(=O)c1cc(O)cc(NC2=NCC(O)CN2)c1)c1cc(Cl)cc(C2(CO)CCOCC2)c1 (some centres unmarked) | Recombinant human integrin αvβ1 (Homo sapiens, UniProt P05556+P06756) | 3 nM |
